Biological target: T1, MDMX (1–200 amino acids) (human, UniProt O15151 1-200)
T1 construct: MDMX, residues 1-200, cDNA amplified from a Human Mosaic cDNA template; also called MDMX(1–200)-FLAG; source: in vitro translated (wheat germ cell-free translation system)
T1 sequence (looked up): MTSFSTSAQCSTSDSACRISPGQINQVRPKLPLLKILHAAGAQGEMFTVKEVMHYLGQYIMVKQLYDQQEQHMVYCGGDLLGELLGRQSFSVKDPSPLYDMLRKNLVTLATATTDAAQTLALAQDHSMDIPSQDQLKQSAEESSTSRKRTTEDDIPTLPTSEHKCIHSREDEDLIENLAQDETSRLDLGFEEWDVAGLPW
Experiment: ELISA; competition: synthetic peptide at various concentrations mixed with in vitro-translated MDM2 (7–300) or MDMX (1–200) in binding buffer (5% skim milk, 10% glycerol), added to His6-p53 immobilized on copper-coated plates, 1 h at room temperature; detection with anti-MDM2 (SMP14) or anti-FLAG M2
Conditions: one partner purified
VALUE_TYPE: pIC50
In simple prose, pIC50 is minus the logarithm base ten of a concentration in moles per litre.

Req: What does the record list as pIC50 for PRFWEYWLRLME (12-mer selected by mRNA display from a partially randomized library; also called X12-1; source: synthetic peptide) [MIP (MDM2 Inhibitory Peptide), synthetic peptide] ?
Resp: 6.92

FYI, the data here is from paper PMC3057987.
